Biological target: HLA-A*02:01 (Homo sapiens, UniProt P04439, D140Y/D185E/D98H/E176V/E277Q/G131W/G231S/I119V/I121R/I166T/I218V/L300P/L318F/N151K/N90K/P208A/P217A/Q86G/Q94H/R138H/R169H/T345S)
Assay: MHC binding assay (UV-ligand exchange, anti-β2m ELISA, peptide exchange yield)
Details: binding to HLA-A*02:01
Property: Peptide exchange (MHC class I binding score, peptide exchange yield)

[[record]]
substance = "553 (SLLNQDLHWSL; listed as Homo sapiens) [compound 553]"
experimental_result = "“+++” (>50 = +++)"

[[record]]
substance = "635 (SLDSTLHAV; listed as Homo sapiens) [compound 635]"
experimental_result = "“+++” (>50 = +++)"

[[record]]
substance = "234 (ALMEDTGRQML; listed as Homo sapiens) [compound 234]"
experimental_result = "“++” (>20% = ++)"

[[record]]
substance = "146 (SLATAGDGLIEL; listed as Homo sapiens) [compound 146]"
experimental_result = "“++” (>20% = ++)"

[[record]]
substance = "245 (SMIDDLLGV; listed as Homo sapiens) [compound 245]"
experimental_result = "“+++” (>50 = +++)"


Peptide exchange (MHC class I binding score, peptide exchange yield) reading for 25 (FLPDEPYIKV; listed as Homo sapiens) [compound 25] : “+++” (>50 = +++)

Note to self: Peptide exchange (MHC class I binding score, peptide exchange yield) recorded for 549 (AMLENASDIKL; listed as Homo sapiens) [compound 549] was “+++” (>50 = +++)

For reference, reported Peptide exchange (MHC class I binding score, peptide exchange yield) for 583 (ILANDGVLLAA; listed as Homo sapiens) [compound 583] stands at “+++” (>50 = +++)
